Target: T1, mGLP‐2 receptor (mouse, UniProt Q5IXF8 1-512)
T1 construct: mouse glucagon-like peptide-2 receptor, pcDNA3.1(+) plasmid from ThermoFisher; also called mouse GLP‐2 receptor; source: COS-7, transiently transfected (pcDNA3.1(+)), on whole cells
T1 sequence (looked up): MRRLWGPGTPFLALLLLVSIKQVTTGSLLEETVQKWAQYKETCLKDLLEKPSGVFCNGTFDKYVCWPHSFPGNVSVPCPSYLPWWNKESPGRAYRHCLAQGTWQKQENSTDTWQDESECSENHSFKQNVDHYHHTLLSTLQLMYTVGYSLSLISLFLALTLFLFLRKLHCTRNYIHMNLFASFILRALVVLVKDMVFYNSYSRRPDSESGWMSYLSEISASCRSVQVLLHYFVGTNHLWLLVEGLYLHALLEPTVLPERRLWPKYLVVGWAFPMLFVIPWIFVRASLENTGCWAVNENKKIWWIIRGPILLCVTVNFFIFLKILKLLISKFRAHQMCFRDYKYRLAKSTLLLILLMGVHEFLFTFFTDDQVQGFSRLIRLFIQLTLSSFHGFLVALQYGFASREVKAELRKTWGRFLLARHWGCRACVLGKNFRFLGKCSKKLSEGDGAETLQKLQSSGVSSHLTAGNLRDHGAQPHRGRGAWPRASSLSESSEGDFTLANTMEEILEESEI
Details: one partner purified
assay-readout: pKi
Hey, just a heads up that pKi is the negative log base 10 of the concentration in molar.

Requested read-out: pKi. Entry: HADGSFSDEMNTILDNLAARDFINWLIQTKITD [hGLP‐2(1–33)]
8.18
